- Test system: SW-620
- protocol-details: SRB assay, inhibition of tumor cell growth at 1 µM (Example 61)
- Assay type: cell-based
- condition-label: Homo sapiens, 48 hours
- Protocol: 3,000-15,000 cells/well were exposed to the test compounds at a concentration of 1 µM for 48 hours, and cytotoxicty was measured using the SRB assay according to Shekan et al (J Natl Cancer Inst (1990) 82, 1107-112). […] The bound dye was solubilized with 10 mM Trizma base and the absorbance read at OD570. Inhibitory activity of the compounds was calculated as % inhibition compared to cells treated with the solvent (DMSO). […]
measured-parameter: inhibition at 1 µM

Guide cases for inhibition at 1 µM, answers given:
smiles=O=c1c(NCCCCOc2ccc(Cl)cc2)c(Nc2ccncc2)c1=O test_value="> 20%"
smiles=O=c1c(NCCCCCCOc2ccc(OCCN3CCOCC3)cc2)c(Nc2ccncc2)c1=O test_value="> 20%"
smiles=O=c1c(NCCCCCOc2ccc(Cl)cc2)c(Nc2ccncc2)c1=O test_value="> 20%"
smiles=O=c1c(NCCCCCCNc2ccc(Cl)cc2)c(Nc2ccncc2)c1=O test_value="> 20%"
smiles=O=c1c(NCCCCCCOc2ccccc2)c(Nc2ccncc2)c1=O test_value="> 20%"

Quick check: inhibition at 1 µM of `O=c1c(NCCCCCCOc2ccc(Cl)cc2)c(Nc2cccnc2)c1=O` ?
> 20%

Quick check: inhibition at 1 µM of `O=c1c(NCCCCCCOc2cccnc2)c(Nc2ccncc2)c1=O` ?
> 20%

Quick check: inhibition at 1 µM of `N#Cc1ccc(OCCCCCCNc2c(Nc3ccncc3)c(=O)c2=O)cc1` ?
> 5%

Quick check: inhibition at 1 µM of `O=c1c(NCCCCCCOc2ccc(OCCN3CCOCC3)cc2)c(Nc2cccnc2)c1=O` ?
> 20%

Quick check: inhibition at 1 µM of `O=c1c(NCc2cccc(Oc3ccc(Cl)cc3)c2)c(Nc2cccnc2)c1=O` ?
> 5%

Quick check: inhibition at 1 µM of `O=c1c(NCc2ccc(COc3ccc(Cl)cc3)cc2)c(Nc2cccnc2)c1=O` ?
> 5%
